Entry source: ChEMBL document CHEMBL1914320

tested on: Moraxella catarrhalis; test: Antibacterial activity against beta-lactamase producing Moraxella catarrhalis isolate 6 at 500 ug/ml after overnight incubation by disc diffusion assay; format: functional, organism-based
Active and inactive are the calls of the source. The calls are words filed in the database; no cut-off is given here.
Write down the outcome that applies. Available outcomes: 1 for active, -1 for inactive

Query: Answer briefly: the call reported for O=C1CC(Sc2ccc(S)cc2)N1S(=O)(=O)O (racemic) in this assay.
Response: 1

Query: Answer briefly: the call reported for O=C1CC(SCCCO)N1 (racemic) in this assay.
Response: -1

Query: Answer briefly: the call reported for CCOC(=O)CN1C(=O)C(OC)C1C(C)(C)SSC (racemic) in this assay.
Response: 1

Query: Answer briefly: the call reported for CCOC(=O)CN1C(=O)C(OC)C1C(S)(CC)CC (racemic) in this assay.
Response: -1
